# Test target: JAK1 (Homo sapiens)
# Construct: JAK1 (aa 850-1154) and TYK2 (aa 871-1187) are expressed with an N-terminally fused GST-tag; GST (N)
# Test method notes: JAK kinase assay (HTRF, phosphorylation of synthetic peptide), JAK1
# Assay setup: catalytic domain, ATP at Km (7 μM); read-out: JAK1 kinase inhibitory activity (EC50)
Measurement name: EC50

Requested read-out: EC50. Entry: CN(C[C@H]1CCCN1S(=O)(=O)CCCC#N)S(=O)(=O)N1CCN(c2ncnc3[nH]ccc23)CC12CC2 [Example 182] < 100 nM

Repeat for the following molecule: O=S(=O)(N(CCO)C1CCC1)N1CCN(c2ncnc3[nH]ccc23)CC12CC2 [Example 101] < 100 nM

Repeat for the following molecule: O=S(=O)(N(CC1CCC(F)(F)CC1)CC1CCC(F)(F)CC1)N1CCN(c2ncnc3[nH]ccc23)CC12CC2 [Example 150] 100 to 500 nM

Repeat for the following molecule: O=S(=O)(N(CCCO)CCc1ccccc1)N1CCN(c2ncnc3[nH]ccc23)CC12CC2 [Example 5] < 100 nM

---

Exercise: for every item that follows, state its recorded EC50.
# Test target: TYK2 (Homo sapiens)
# Construct: JAK1 (aa 850-1154) and TYK2 (aa 871-1187) are expressed with an N-terminally fused GST-tag; GST (N)
# Sequence (P29597 871-1187): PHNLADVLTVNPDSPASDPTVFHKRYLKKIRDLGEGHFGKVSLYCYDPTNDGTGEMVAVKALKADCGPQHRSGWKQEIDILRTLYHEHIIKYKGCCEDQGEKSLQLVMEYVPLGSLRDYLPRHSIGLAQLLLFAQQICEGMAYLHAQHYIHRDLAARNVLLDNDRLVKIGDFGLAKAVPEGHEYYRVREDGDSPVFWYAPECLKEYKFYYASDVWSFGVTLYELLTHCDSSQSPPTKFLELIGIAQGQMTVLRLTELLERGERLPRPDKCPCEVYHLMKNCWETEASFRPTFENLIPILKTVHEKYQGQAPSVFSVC
# Test method notes: JAK kinase assay (HTRF, phosphorylation of synthetic peptide), TYK2
# Assay setup: catalytic domain, ATP at Km (13 μM); read-out: TYK2 kinase inhibitory activity (EC50)

Requested read-out: EC50. Entry: CN(C[C@@H]1CCCN1C(=O)CCO)S(=O)(=O)N1CCN(c2ncnc3[nH]ccc23)CC12CC2 100 to 500 nM

Repeat for the following compound: O=S(=O)(NC1CCC1)N1CCN(c2ncnc3[nH]ccc23)CC12CC2 > 500 nM

Repeat for the following compound: CN(C[C@H]1CCCN1C=O)S(=O)(=O)N1CCN(c2ncnc3[nH]ccc23)CC12CC2 100 to 500 nM

Repeat for the following compound: CN(C[C@H]1CCC(=O)N1)S(=O)(=O)N1CCN(c2ncnc3[nH]ccc23)CC12CC2 < 100 nM

---

# Test target: JAK3 (Homo sapiens)
# Construct: All four purified enzymes contain only the catalytic domain; His (N); purchased Carna Biosciences, Inc; host or cells: baculovirus expression system
# Sequence (P52333 822-1111 limits assumed): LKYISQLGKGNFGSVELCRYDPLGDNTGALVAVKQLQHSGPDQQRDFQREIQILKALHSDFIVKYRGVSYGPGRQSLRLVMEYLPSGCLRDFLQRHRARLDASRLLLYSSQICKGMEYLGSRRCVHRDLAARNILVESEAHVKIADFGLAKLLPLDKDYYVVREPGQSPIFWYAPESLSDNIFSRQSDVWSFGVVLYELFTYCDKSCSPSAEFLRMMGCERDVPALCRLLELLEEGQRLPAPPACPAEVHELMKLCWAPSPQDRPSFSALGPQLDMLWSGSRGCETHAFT
# Test method notes: JAK kinase assay (HTRF, phosphorylation of synthetic peptide), JAK3
# Assay type: biochemical
# Assay setup: catalytic domain, ATP at Km (2 μM); read-out: JAK3 kinase inhibitory activity (EC50)
Measurement name: EC50

Requested read-out: EC50. Entry: CN(C[C@H]1CCC(=O)N1)S(=O)(=O)N1CCN(c2ncnc3[nH]ccc23)CC12CC2 < 100 nM

Repeat for the following molecule: CC(C)(C)OC(=O)NS(=O)(=O)N1CCN(c2ncnc3[nH]ccc23)CC12CC2 < 100 nM

Repeat for the following molecule: CN(CCOc1ccc(Cl)cc1)S(=O)(=O)N1CCN(c2ncnc3[nH]ccc23)CC12CC2 100 to 500 nM

Repeat for the following molecule: O=S(=O)(NC1COC1)N1CCN(c2ncnc3[nH]ccc23)CC12CC2 < 100 nM

---

Exercise: for every item that follows, state its recorded EC50.
# Test target: JAK1 (Homo sapiens, UniProt P23458)
# Construct: JAK1 (aa 850-1154) and TYK2 (aa 871-1187) are expressed with an N-terminally fused GST-tag; GST (N)
# Sequence (P23458 850-1154): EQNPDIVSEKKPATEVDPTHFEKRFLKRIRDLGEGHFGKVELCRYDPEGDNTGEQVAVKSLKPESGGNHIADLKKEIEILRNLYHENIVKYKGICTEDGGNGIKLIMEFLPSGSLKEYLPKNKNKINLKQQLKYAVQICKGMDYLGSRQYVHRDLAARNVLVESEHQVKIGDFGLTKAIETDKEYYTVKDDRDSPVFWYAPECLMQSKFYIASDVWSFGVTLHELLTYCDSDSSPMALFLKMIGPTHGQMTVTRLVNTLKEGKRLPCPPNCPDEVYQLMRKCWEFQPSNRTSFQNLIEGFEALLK
# Test method notes: JAK kinase assay (HTRF, phosphorylation of synthetic peptide), JAK1
# Assay setup: catalytic domain, ATP at Km (7 μM); read-out: JAK1 kinase inhibitory activity (EC50)

Requested read-out: EC50. Entry: CCCN(CCc1ccccc1)S(=O)(=O)N1CCN(c2ncnc3[nH]ccc23)CC12CC2 < 100 nM

Repeat for the following compound: O=S(=O)(NOCc1ccccc1)N1CCN(c2ncnc3[nH]ccc23)CC12CC2 < 100 nM

Repeat for the following compound: N#CC1CCN(S(=O)(=O)N2CCN(c3ncnc4[nH]ccc34)CC23CC3)CC1 < 100 nM

Repeat for the following compound: CN(c1ccccc1)S(=O)(=O)N1CCN(c2ncnc3[nH]ccc23)CC12CC2 < 100 nM

Repeat for the following compound: CN(CCc1cccc(F)c1)S(=O)(=O)N1CCN(c2ncnc3[nH]ccc23)CC12CC2 < 100 nM

Repeat for the following compound: CN(C[C@@H]1CCCN1S(C)(=O)=O)S(=O)(=O)N1CCN(c2ncnc3[nH]ccc23)CC12CC2 < 100 nM

Repeat for the following compound: O=S(=O)(N(CCc1ccccc1)CC1CC1)N1CCN(c2ncnc3[nH]ccc23)CC12CC2 < 100 nM

Repeat for the following compound: O=S(=O)(N(CCc1ccccc1)CC1CCCCO1)N1CCN(c2ncnc3[nH]ccc23)CC12CC2 (centres unmarked) < 100 nM

Repeat for the following compound: CC(C)CN(CCc1ccccc1)S(=O)(=O)N1CCN(c2ncnc3[nH]ccc23)CC12CC2 100 to 500 nM

Repeat for the following compound: N#CCN(CC1CCS(=O)(=O)C1)S(=O)(=O)N1CCN(c2ncnc3[nH]ccc23)CC12CC2 (centres unmarked) < 100 nM

Repeat for the following compound: CC(C)NS(=O)(=O)N1CCN(c2ncnc3[nH]ccc23)CC12CC2 100 to 500 nM

Repeat for the following compound: CCN(C(C)C)S(=O)(=O)N1CCN(c2ncnc3[nH]ccc23)CC12CC2 100 to 500 nM

Repeat for the following compound: N#CCN(C1CCC1)S(=O)(=O)N1CCN(c2ncnc3[nH]ccc23)CC12CC2 < 100 nM

Repeat for the following compound: CN(C[C@@H]1CCC(=O)N1)S(=O)(=O)N1CCN(c2ncnc3[nH]ccc23)CC12CC2 < 100 nM

Repeat for the following compound: O=S1(=O)CCC(CNS(=O)(=O)N2CCN(c3ncnc4[nH]ccc34)CC23CC3)C1 (centres unmarked) < 100 nM

Repeat for the following compound: CN(CC1CCNC1)S(=O)(=O)N1CCN(c2ncnc3[nH]ccc23)CC12CC2 (centres unmarked) < 100 nM

Repeat for the following compound: CN(C(=O)CCC1CCCC1)S(=O)(=O)N1CCN(c2ncnc3[nH]ccc23)CC12CC2 < 100 nM
